Values were extracted from ChEMBL document CHEMBL2311263.

- Study target: Mitogen-activated protein kinase 14 (Homo sapiens)
- Sequence (Q16539 whole entry): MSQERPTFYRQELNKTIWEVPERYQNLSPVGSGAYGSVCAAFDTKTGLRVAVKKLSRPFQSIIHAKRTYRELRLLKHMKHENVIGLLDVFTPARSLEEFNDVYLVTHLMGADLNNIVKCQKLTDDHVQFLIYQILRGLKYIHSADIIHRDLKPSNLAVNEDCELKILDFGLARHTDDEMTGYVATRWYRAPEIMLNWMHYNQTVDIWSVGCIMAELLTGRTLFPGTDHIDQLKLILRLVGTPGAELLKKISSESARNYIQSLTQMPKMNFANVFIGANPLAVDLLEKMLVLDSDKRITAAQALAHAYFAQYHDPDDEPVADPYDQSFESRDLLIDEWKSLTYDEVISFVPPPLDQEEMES
- Experiment: Inhibition of p38alpha MAP kinase in whole blood (unknown origin) assessed as lipopolysaccharide-stimulated TNF-alpha release by ELISA
Property measured: log10(IC50) (log10 of the value in nM)

>>> experimental_result("COCCNC(=O)c1ccc2c(c1)C(=O)c1ccc(Nc3ccc(F)cc3F)cc1CC2")
1.73
>>> experimental_result("CCOC(=O)c1ccc2c(c1)C(=O)c1ccc(Nc3ccc(F)cc3F)cc1CC2")
2.43
>>> experimental_result("O=C(Nc1cc(Nc2ccc3c(c2)CCc2ccc(OCCN4CCOCC4)cc2C3=O)c(F)cc1F)c1ccsc1")
1.08
>>> experimental_result("O=C(Nc1cc(Nc2ccc3c(c2)CCc2ccc(OCCN4CCOCC4)cc2C3=O)ccc1F)c1cccs1")
1.98
>>> experimental_result("CNC(=O)c1ccc2c(c1)C(=O)c1ccc(Nc3ccc(F)cc3F)cc1CC2")
1.57
>>> experimental_result("CC(=O)Oc1ccc2c(c1)C(=O)c1ccc(Nc3ccc(F)cc3F)cc1CC2")
3.36
>>> experimental_result("CN1CCN(CCNC(=O)c2ccc3c(c2)C(=O)c2ccc(Nc4ccc(F)cc4F)cc2CC3)CC1")
1.43
